assay system: Microtubule-associated protein tau (Homo sapiens) (UniProt P10636)
Sequence (P10636 whole entry): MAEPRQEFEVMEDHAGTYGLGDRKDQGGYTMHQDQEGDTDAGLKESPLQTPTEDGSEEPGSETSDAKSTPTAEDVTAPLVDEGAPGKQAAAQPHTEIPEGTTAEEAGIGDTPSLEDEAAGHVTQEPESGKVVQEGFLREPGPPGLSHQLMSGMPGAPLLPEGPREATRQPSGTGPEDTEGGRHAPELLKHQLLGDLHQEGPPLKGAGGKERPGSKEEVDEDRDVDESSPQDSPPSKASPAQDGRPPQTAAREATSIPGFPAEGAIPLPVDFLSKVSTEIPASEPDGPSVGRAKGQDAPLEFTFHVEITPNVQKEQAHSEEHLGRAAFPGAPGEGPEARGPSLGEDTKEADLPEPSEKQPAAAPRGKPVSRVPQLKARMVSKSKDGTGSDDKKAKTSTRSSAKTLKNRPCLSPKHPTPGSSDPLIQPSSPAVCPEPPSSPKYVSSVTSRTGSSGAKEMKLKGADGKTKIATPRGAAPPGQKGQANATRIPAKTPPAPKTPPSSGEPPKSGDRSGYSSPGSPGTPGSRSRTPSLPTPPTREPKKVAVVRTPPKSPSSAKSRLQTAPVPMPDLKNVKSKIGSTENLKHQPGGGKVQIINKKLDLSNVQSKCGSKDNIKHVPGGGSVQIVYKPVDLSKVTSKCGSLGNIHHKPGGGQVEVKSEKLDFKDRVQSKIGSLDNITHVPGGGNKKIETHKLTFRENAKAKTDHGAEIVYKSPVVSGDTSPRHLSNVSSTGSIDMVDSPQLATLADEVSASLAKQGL
protocol details: Induction of heparin-induced recombinant 4R tau (unknown origin) fibril oxidation at cysteine residues at 200 uM after 2 hrs by oregon green binding assay
Activity calls are given as the source filed them. No cut-off for these calls is given here.
Your response should consist of one outcome taken from class 1 (active), class 0 (inactive)

Would you please look over these solved cases?
chem smiles: Nc1scc2c(C(=O)NC3CC3)nn(-c3ccc(F)cc3)c(=O)c12
assay system: Microtubule-associated protein tau (Homo sapiens) (UniProt P10636)
assigned label: class 1
//
chem smiles: C=CCO/N=C(\C(=O)NC1CC1)c1csc(N)c1C(=O)Nc1ccc(F)cc1
assay system: Microtubule-associated protein tau (Homo sapiens) (UniProt P10636)
assigned label: class 0
//
chem smiles: Nc1scc(/C(=N/O)C(=O)NC2CC2)c1C(=O)NC12CC3CC(CC(C3)C1)C2
assay system: Microtubule-associated protein tau (Homo sapiens) (UniProt P10636)
assigned label: class 1

Let's switch to this molecule now.
How was Nc1scc(/C(=N/O)C(=O)NC2CC2)c1C(=O)Nc1ccc(F)cc1 classified in this test?
class 1
